System: C3H/HeJ mice
experimental-parameters: maximum tolerated dose at day 40, C3H/HeJ mice
Marks after values point to notes of the source that are not given here.
test-readout: In Vivo Toxicity MTD40 (ip, mg/kg) in C3H/Hej Mice

# compound, test-result
data = [
    ("CCC1(OC(=O)COc2ccc(C)cc2)C(=O)OCc2c1cc1n(c2=O)Cc2cc3ccccc3nc2-1 (centres unmarked)", "<150 mg/kg"),
    ("CCC1(OC(=O)COc2ccc(OCc3ccccc3)cc2)C(=O)OCc2c1cc1n(c2=O)Cc2cc3ccccc3nc2-1 (centres unmarked)", "<150 mg/kg"),
    ("CC[C@@]1(O)C(=O)OCc2c1cc1n(c2=O)Cc2cc3ccccc3nc2-1 [CPT, reference compound]", "<20** mg/kg"),
    ("CCC1(OC(=O)COc2cccc(CBr)c2)C(=O)OCc2c1cc1n(c2=O)Cc2cc3ccccc3nc2-1 (centres unmarked)", "<150 mg/kg"),
    ("CC[C@@]1(OC(=O)COc2ccc(C)nc2I)C(=O)OCc2c1cc1n(c2=O)Cc2cc3ccccc3nc2-1", ">150 mg/kg"),
    ("CCC1(OC(=O)COc2ccc(C(C)C)cc2)C(=O)OCc2c1cc1n(c2=O)Cc2cc3ccccc3nc2-1 (centres unmarked)", ">150 mg/kg"),
    ("CCC1(OC(=O)COc2c(Cl)cc(F)cc2Cl)C(=O)OCc2c1cc1n(c2=O)Cc2cc3ccccc3nc2-1 (centres unmarked)", ">150 mg/kg"),
    ("CCC1(OC(=O)COc2ccc([N+](=O)[O-])c(C(F)(F)F)c2)C(=O)OCc2c1cc1n(c2=O)Cc2cc3ccccc3nc2-1 (centres unmarked)", ">150 mg/kg"),
    ("CCC1(OC(=O)COc2ccc3c(c2)OCO3)C(=O)OCc2c1cc1n(c2=O)Cc2cc3ccccc3nc2-1 (centres unmarked)", "45 mg/kg"),
    ("CCC1(OC(=O)COc2ccc(C(=O)O)cc2)C(=O)OCc2c1cc1n(c2=O)Cc2cc3ccccc3nc2-1 (centres unmarked)", ">150 mg/kg"),
    ("CCC1(OC(=O)COc2cccc(Cl)c2Cl)C(=O)OCc2c1cc1n(c2=O)Cc2cc3ccccc3nc2-1 (centres unmarked)", "100 mg/kg"),
    ("CCC1(OC(=O)COc2ccc(OC)cc2)C(=O)OCc2c1cc1n(c2=O)Cc2cc3ccccc3nc2-1 (centres unmarked)", ">150 mg/kg"),
    ("CCC1(OC(=O)COc2ccc3c(C)c(Cl)c(=O)oc3c2)C(=O)OCc2c1cc1n(c2=O)Cc2cc3ccccc3nc2-1 (centres unmarked)", "75 mg/kg"),
    ("CC[C@@]1(OC(=O)COc2ccc(Br)cc2)C(=O)OCc2c1cc1n(c2=O)Cc2cc3ccccc3nc2-1", ">150 mg/kg"),
]

====

We begin with a simple list: items and their reported T/C %.
System: MTG-B mouse mammary Adenocarcinoma
assay-summary: In vivo efficacy in C3H/HeJ mice bearing MTG-B tumors
experimental-parameters: surviving days treated / surviving days control x 100%; control 6 days

# compound, T/C % / %
data = [
    ("CCC1(OC(=O)COc2ccc(I)cc2)C(=O)OCc2c1cc1n(c2=O)Cc2cc3ccccc3nc2-1 (stereo not shown) [Example 000413]", 300),
    ("CCC1(OC(=O)COc2ccc(C=O)cc2)C(=O)OCc2c1cc1n(c2=O)Cc2cc3ccccc3nc2-1 (stereo not shown) [Example 000313]", 150),
    ("CCC1(OC(=O)COc2ccc3c(c2)OCO3)C(=O)OCc2c1cc1n(c2=O)Cc2cc3ccccc3nc2-1 (stereo not shown) [Example 000419]", 200),
    ("CC[C@@]1(OC(=O)COc2ccc(Br)cc2)C(=O)OCc2c1cc1n(c2=O)Cc2cc3ccccc3nc2-1 [Example 000315]", 300),
]

====

System: MTG-B mouse mammary Adenocarcinoma
assay-summary: In vivo efficacy in C3H/HeJ mice bearing MTG-B tumors
experimental-parameters: surviving days treated / surviving days control x 100%; control 6 days
We begin with a simple list: items and their reported T/C %.

# compound, T/C % / %
records = [
    ("CCC1(OC(=O)COc2cccc(Cl)c2Cl)C(=O)OCc2c1cc1n(c2=O)Cc2cc3ccccc3nc2-1 (stereo not drawn) [Example 000412]", 283),
    ("CCC1(OC(=O)COc2ccccc2[N+](=O)[O-])C(=O)OCc2c1cc1n(c2=O)Cc2cc3ccccc3nc2-1 (stereo not drawn) [Example 000411]", 133),
    ("CC[C@@]1(OC(=O)CO[C@@H]2C[C@H](C)CC[C@H]2C(C)C)C(=O)OCc2c1cc1n(c2=O)Cc2cc3ccccc3nc2-1 [Example 0002031]", 200),
]

====

Tested on: MTG-B mouse mammary Adenocarcinoma
assay-summary: In vivo efficacy in C3H/HeJ mice bearing MTG-B tumors
experimental-parameters: surviving days treated / surviving days control x 100%; control 6 days
We begin with a simple list: items and their reported T/C %.
test-readout: T/C %

# compound, test-readout, test-result
measured = [
    ("CCC1(OC(=O)COc2c(F)c(F)c(F)c(F)c2F)C(=O)OCc2c1cc1n(c2=O)Cc2cc3ccccc3nc2-1 (stereo not drawn) [Example 000410]", "T/C %", "200%"),
    ("CCC1(OC(=O)COc2ccc(F)cc2)C(=O)OCc2c1cc1n(c2=O)Cc2cc3ccccc3nc2-1 (stereo not drawn) [Example 000417, camptothecin-20-O-4-fluorophenoxyacetate]", "T/C %", "300%"),
    ("CCC1(OC(=O)COc2ccc(Cl)cc2C)C(=O)OCc2c1cc1n(c2=O)Cc2cc3ccccc3nc2-1 (stereo not drawn) [Example 000127]", "T/C %", "217%"),
    ("CC(=O)O[C@H]1C(=O)[C@@]2(C)[C@H]([C@H](OC(=O)c3ccccc3)[C@]3(O)C[C@H](OC(=O)[C@H](O)[C@@H](NC(=O)c4ccccc4)c4ccccc4)C(C)=C1C3(C)C)[C@]1(OC(C)=O)CO[C@@H]1C[C@@H]2O [Taxol, reference compound]", "T/C %", "150%"),
    ("CCC1(OC(=O)COc2ccc3ccccc3c2)C(=O)OCc2c1cc1n(c2=O)Cc2cc3ccccc3nc2-1 (stereo not drawn) [Example 000224]", "T/C %", "117%"),
    ("CCC1(OC(=O)COc2ccc3c(C)c(Cl)c(=O)oc3c2)C(=O)OCc2c1cc1n(c2=O)Cc2cc3ccccc3nc2-1 (stereo not drawn) [Example 000129]", "T/C %", "200%"),
]

====

System: PC-3
assay-summary: Cell colony formation assay, PC-3 cells
Format: cell-based, human
experimental-parameters: 1 nM, 72 hours drug exposure
test-readout: In vitro efficacy: Survival (%) of cells line PC-3

# molecule, test-result
data = [
    ("CCCCOCC(=O)OC1(CC)C(=O)OCc2c1cc1n(c2=O)Cc2cc3ccccc3nc2-1 (centres unmarked)", "85.72%"),
    ("CCC1(OC(=O)COc2ccc3c(C)c(Cl)c(=O)oc3c2)C(=O)OCc2c1cc1n(c2=O)Cc2cc3ccccc3nc2-1 (centres unmarked)", "88.04%"),
    ("CC[C@@]1(OC(=O)COc2ccc(Br)cc2)C(=O)OCc2c1cc1n(c2=O)Cc2cc3ccccc3nc2-1", "87.38%"),
    ("CCC1(OC(=O)COc2ccc(C(C)C)cc2)C(=O)OCc2c1cc1n(c2=O)Cc2cc3ccccc3nc2-1 (centres unmarked)", "100%"),
    ("CC(=O)O[C@H]1C(=O)[C@@]2(C)[C@H]([C@H](OC(=O)c3ccccc3)[C@]3(O)C[C@H](OC(=O)[C@H](O)[C@@H](NC(=O)c4ccccc4)c4ccccc4)C(C)=C1C3(C)C)[C@]1(OC(C)=O)CO[C@@H]1C[C@@H]2O [Taxol, reference compound]", "82.80%"),
]

====

Test system: C3H/HeJ mice
experimental-parameters: maximum tolerated dose at day 40, C3H/HeJ mice
test-readout: In Vivo Toxicity MTD40 (ip, mg/kg) in C3H/Hej Mice

# compound, test-result
records = [
    ("CCC1(OC(=O)COc2ccc(F)cc2)C(=O)OCc2c1cc1n(c2=O)Cc2cc3ccccc3nc2-1 (stereo not shown) [Example 000417, camptothecin-20-O-4-fluorophenoxyacetate]", ">150 mg/kg"),
    ("CCC1(OC(=O)COc2ccc(Cl)cc2C)C(=O)OCc2c1cc1n(c2=O)Cc2cc3ccccc3nc2-1 (stereo not shown)", ">150 mg/kg"),
    ("CC(=O)O[C@H]1C(=O)[C@@]2(C)[C@H]([C@H](OC(=O)c3ccccc3)[C@]3(O)C[C@H](OC(=O)[C@H](O)[C@@H](NC(=O)c4ccccc4)c4ccccc4)C(C)=C1C3(C)C)[C@]1(OC(C)=O)CO[C@@H]1C[C@@H]2O [Taxol, reference compound]", "40.6 mg/kg"),
    ("CCC1(OC(=O)COc2ccc(C=O)cc2)C(=O)OCc2c1cc1n(c2=O)Cc2cc3ccccc3nc2-1 (stereo not shown)", ">150 mg/kg"),
]
